Values compiled from patent US20200140562A1.

Each item that follows carries a reported MFI.
target.under.test: T1, human OX40 on cells (CHO-hOX40, 293HEK-hOX40, Jurkat-hOX40, activated primary CD4+ T cells) (human, UniProt P43489 29-277)
T1 construct: whole, on cells; The cell type is told in each assay; also called CHO-OX40
T1 sequence (looked up): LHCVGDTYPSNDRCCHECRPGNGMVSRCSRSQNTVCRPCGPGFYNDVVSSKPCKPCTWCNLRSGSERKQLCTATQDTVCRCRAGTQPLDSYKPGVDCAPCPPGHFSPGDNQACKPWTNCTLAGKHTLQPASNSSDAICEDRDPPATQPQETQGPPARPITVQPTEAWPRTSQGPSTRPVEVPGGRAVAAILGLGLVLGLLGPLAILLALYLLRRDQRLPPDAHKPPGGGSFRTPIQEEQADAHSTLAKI
experimental.protocol: flow cytometry, activated CD4+ T cells, donor 2, 100 nM
Note: unit MFI is implicit; provide only the numeric part.

binder: ADI-20113, IgG1 format (antibody, V domains shown, Made in yeast) VH: QVQLVESGGGVVQPGRSLRLSCAASGFTFSSYGMHWVRQAPGKGLEWVAVISYDGSNKYYADSVKGRFTISRDNSKNTLYLQMNSLRAEDTAVYYCARGRPWYSETGTSAFDIWGQGTMVTVSS VL: EIVMTQSPATLSVSPGERATLSCRASQSVSSNLAWYQQKPGQAPRLLIYSASTRATGIPARFSGSGSGTEFTLTISSLQSEDFAVYYCQQHNVYPPYTFGGGTKVEIKR
MFI (MFI): 115000

binder: ADI-20048, IgG1 format (antibody, V domains shown, Made in yeast) VH: QVQLQESGPGLVKPSETLSLTCTVSGGSISSYYWSWIRQPPGKGLEWIGYIYSSGSTNYNPSLKSRVTISVDTSKNQFSLKLSSVTAADTAVYYCARDAPGGSSYQDYYMDVWGKGTTVTVSS VL: EIVLTQSPATLSLSPGERATLSCRASQSVSSYLAWFQQKPGQAPRLLIYDASNRATGIPARFSGSGSGTDFTLTISSLEPEDFAVYYCQQAFSMPPTFGGGTKVEIKR
MFI (MFI): 62600

binder: IgG1 control (antibody, V domains shown, Negative control; The printed entries seem to begin with a leader peptide) VH: EVRLLESGGGLVQPGGSLRLSCAASGFTFSNYAMGWVRQAPGKGLEWVSAISGSGGSTYYADSVKGRFTTSRDDSKNALYLQMNSLRAEDTAVYYCARGGPGWYAADVWGQGTTVTVSS VL: DIQMTQSPSSLSASVGDRVTITCRASQSISSYLNWYQQKPGKAPKLLIYAASSLQSGVPSRFSGSGSGTDFTLTISSLQPEDFATYYCQQADLPAFAFGGGTKVEIKR
MFI (MFI): 1710

Alright, here's another binder for you.
[in] Endpoint output: MFI of ADI-20066, IgG1 format (antibody, V domains shown, Made in yeast) VH: QLQLQESGPGLVKPSETLSLTCTVSGGSISSSSYYWGWIRQPPGKGLEWIGSIYYSGSTYYNPSLKSRVTISVDTSKNQFSLKLSSVTAADTAVYYCARDPGYSASPNWFDPWGQGTLVTVSS VL: EIVLTQSPGTLSLSPGERATLSCRASQSVSSSFLAWYQQKPGQAPRLLIYGASSRATGIPDRFSGSGSGTDFTLTISRLEPEDFAVYYCQQYDVFPITFGGGTKVEIKR . Value?
[out] 193000
